All figures here come from paper PMC13408523.

Molecular target: hen egg white lysozyme (HEWL) (Gallus gallus, UniProt P00698)
Construct: gene LYZ
Sequence (P00698 19-147): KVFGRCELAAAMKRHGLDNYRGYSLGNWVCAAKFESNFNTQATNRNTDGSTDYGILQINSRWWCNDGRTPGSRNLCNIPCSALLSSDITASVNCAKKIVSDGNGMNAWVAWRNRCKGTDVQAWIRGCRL
Experiment: SPR (HEWL amine-coupled on CMD gold chip, […]°C); intrinsic fluorescence quenching
Type: binding
quantity measured: pKd
Remember, pKd is on a log scale: it is -log10 of the molar concentration.

Entry under review: `O=c1ccc2cc3ccoc3cc2o1` . Reported pKd?
5.03

---

Molecular target: hen egg white lysozyme (HEWL) (Gallus gallus, UniProt P00698)
Construct: gene LYZ
Experiment: SPR (HEWL amine-coupled on CMD gold chip, […]°C); intrinsic fluorescence quenching
Assay type: binding
Details: read-out: Kd
quantity measured: pKd
Scale explanation: pKd corresponds to minus log10 of a concentration expressed in moles per litre.

So what does the record say about pKd for CC1(C)C=Cc2c(ccc3ccc(=O)oc23)O1 [seselin] ?
4.33
